Listed here are compounds together with their documented IC50.
target: human neutrophil elastase (HNE) (Homo sapiens); assay: In vitro inhibition of HNE using a fluorogenic peptide substrate (MeOSuc-Ala-Ala-Pro-Val-AMC); details: 384 MTP format
Output spec: scalar in nM, unitless text.

CCOC(=O)C1=C(C)N(c2cccc(C(F)(F)F)c2)C(SCC)=NC1c1ccc(C#N)cc1 (stereo not shown)    40

Query string: What does the record list as IC50 for CCOC(=O)C1=C(C)N(c2cccc(C(F)(F)F)c2)C(SC)=NC1c1ccc(C#N)cc1 (stereo not shown) ?
Result string: 10

Query string: What does the record list as IC50 for CC1=C(C(N)=O)C(c2ccc(C#N)cc2)NC(=S)N1c1cccc(C(F)(F)F)c1 (stereo not shown) ?
Result string: 23

Query string: What does the record list as IC50 for CCOC(=O)C1=C(C)N(c2cccc(C(F)(F)F)c2)C(=S)N(C(=O)C2CCC2)C1c1ccc(C#N)cc1 (stereo not shown) ?
Result string: 10

----------
biological target: human neutrophil elastase (HNE) (Homo sapiens, UniProt P08246); construct: purchased SERVA Electrophoresis GmbH, Heidelberg, Germany #20927.01; assay: In vitro inhibition of HNE using a fluorogenic peptide substrate (MeOSuc-Ala-Ala-Pro-Val-AMC); type: biochemical; details: 384 MTP format
Sequence (P08246 30-267): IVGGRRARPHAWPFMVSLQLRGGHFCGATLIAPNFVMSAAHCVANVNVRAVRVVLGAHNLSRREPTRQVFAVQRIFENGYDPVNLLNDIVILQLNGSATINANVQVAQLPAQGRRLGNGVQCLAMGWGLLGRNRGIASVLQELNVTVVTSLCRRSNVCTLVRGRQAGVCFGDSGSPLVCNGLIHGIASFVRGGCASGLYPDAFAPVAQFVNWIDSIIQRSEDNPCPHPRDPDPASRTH
Listed here are molecules together with their documented pIC50.
Keep it numeric: pIC50 is minus log10 of the concentration in mol/L.

CCOC(=O)C1=C(C)N(c2cccc(C(F)(F)F)c2)C(SCCN(CC)CC)=NC1c1ccc(C#N)cc1 (stereo not shown)    8.00
CCOC(=O)C1=C(C)N(c2cccc(Cl)c2)C(SCCCOC(N)=O)=NC1c1ccc(C#N)cc1 (stereo not shown)    7.70
CCN(CC)CCOC(=O)C1=C(C)N(c2cccc(C(F)(F)F)c2)C(SC)=NC1c1ccc(C#N)cc1 (stereo not shown)    7.92
CC1=C(C(=O)N(C)C)C(c2ccc(C#N)cc2)NC(=S)N1c1cccc(C(F)(F)F)c1 (stereo not shown)    7.15

Query string: What does the record list as pIC50 for CCOC(=O)C1=C(C)N(c2cccc(C(F)(F)F)c2)C(SCc2ccncc2)=NC1c1ccc(C#N)cc1 (stereo not shown) ?
Result string: 7.00

Query string: What does the record list as pIC50 for CCOC(=O)C1=C(C)N(c2cccc(C(F)(F)F)c2)C(SC)=NC1c1ccc(C#N)cc1C (stereo not shown) ?
Result string: 7.10

Query string: What does the record list as pIC50 for CCOC(=O)C1=C(C)N(c2cccc(C(F)(F)F)c2)C(SCc2ncc[nH]2)=NC1c1ccc(C#N)cc1 (stereo not shown) ?
Result string: 8.30

----------
Listed here are molecules together with their documented IC50.
target: human neutrophil elastase (HNE) (Homo sapiens); assay: In vitro inhibition of HNE using a fluorogenic peptide substrate (MeOSuc-Ala-Ala-Pro-Val-AMC); settings: 384 MTP format
Answer shape: numeric part, then the unit.

// solved cases for IC50 follow
CC(=O)C1=C(C)N(c2cccc(C(F)(F)F)c2)C(=S)NC1c1ccc(C#N)cc1 (stereo not drawn)    13 nM
CCOC(=O)C1=C(C)N(c2cccc(C(F)(F)F)c2)C(=S)NC1c1ccc(C#N)cc1 (stereo not drawn)    9 nM

From here, focus on the item given below.
Query string: What does the record list as IC50 for CC1=C(C(=O)O)C(c2ccc(C#N)cc2)NC(=S)N1c1cccc(C(F)(F)F)c1 (stereo not drawn) ?
Result string: 30 nM
